# target.entity: HEK 293 GPR73 (prokineticin 1 receptor) expressing cells (Homo sapiens)
# protocol.text: PK1 functional assay: screening for PK1 antagonists on the FLIPR (calcium fluorescence)
# test.context: HEK 293 GPR73 cells, PK1 ligand at EC50, multiple values = repeat tests, read-out: Ca^2+ Mobilization IC50
metric: IC50 (µM)

{"compound": "CCOc1cccc(Cn2c(NCCNC(=N)N)nc(=O)n(Cc3ccc(Cl)c(Cl)c3)c2=O)c1", "result.unit": "µM", "IC50": 6.52}
{"compound": "COc1ccc(Cn2c(N3CCC(NC(=N)N)C3)nc(=O)n(Cc3ccc(Cl)c(Cl)c3)c2=O)cc1 (stereo not shown)", "result.unit": "µM", "IC50": 6.73}

P. CCc1ccc(Cn2c(=O)nc(NCCNC(=N)N)n(Cc3ccc(OC)cc3)c2=O)cc1
Q. COc1ccc(Cn2c(NCCNC3=NCC(=O)N3)nc(=O)n(Cc3ccc(Cl)c(Cl)c3)c2=O)cc1
R. N=C(N)NCCNc1nc(=O)n(Cc2ccc(Cl)c(Cl)c2)c(=O)n1Cc1cccc(OC(F)F)c1
S. COc1ccc(Cn2c(NCCNC(=N)Nc3ccc(F)cc3F)nc(=O)n(Cc3ccc(F)cc3)c2=O)cc1
T. COc1ccc(Cn2c(NCCNC(=N)N)nc(=O)n(Cc3ccc(OC(C)(C)C)cc3)c2=O)cc1
Hi! Can you put these in order of IC50, lowest number first? Return the labels ranked in the requested order, please.
S, P, T, Q, R
(S: 0.012 µM, P: 0.058 µM, T: 0.129 µM, Q: 0.798 µM, R: 8.21 µM)

====

# target.entity: HEK 293 GPR73 (prokineticin 1 receptor) expressing cells (Homo sapiens, UniProt Q8TCW9)
# Construct: expressed in transfected cells; host or cells: HEK 293
# Sequence (Q8TCW9 whole entry): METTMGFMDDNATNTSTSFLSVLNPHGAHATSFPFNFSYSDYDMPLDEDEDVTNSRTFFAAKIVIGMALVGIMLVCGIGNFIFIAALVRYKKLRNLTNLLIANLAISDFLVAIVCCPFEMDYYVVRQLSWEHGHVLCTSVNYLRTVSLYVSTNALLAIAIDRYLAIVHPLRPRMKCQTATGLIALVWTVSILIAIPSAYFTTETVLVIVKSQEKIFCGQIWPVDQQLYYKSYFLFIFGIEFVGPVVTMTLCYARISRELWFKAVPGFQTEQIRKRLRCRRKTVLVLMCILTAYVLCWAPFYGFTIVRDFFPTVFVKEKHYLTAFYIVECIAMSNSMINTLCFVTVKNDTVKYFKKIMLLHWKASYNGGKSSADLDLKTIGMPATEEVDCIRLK
# protocol.text: PK1 functional assay: screening for PK1 antagonists on the FLIPR (calcium fluorescence)
# Type: cell-based
# test.context: HEK293, compound at 10 μM, HEK 293 GPR73 cells, multiple values = repeat tests, read-out: Ca^2+ Mobilization % Inh @10 μM
metric: inhibition at 10 µM (%)

{"chemical.structure": "COc1ccc(Cn2c(NCCNC(=N)N)nc(=O)n(Cc3ccc(F)cc3)c2=O)cc1", "result.unit": "%", "numeric.value": 100}
{"chemical.structure": "COc1ccc(Cn2c(NCCNC(=N)NCc3ccccc3)nc(=O)n(Cc3ccc(Cl)c(Cl)c3)c2=O)cc1", "result.unit": "%", "numeric.value": 101}
{"chemical.structure": "COc1ccc(Cn2c(CCCNC(=N)N)cc(=O)n(Cc3ccc(OC)cc3)c2=O)cc1", "result.unit": "%", "numeric.value": 89}
{"chemical.structure": "[H]/N=C(\\N)NCCNc1nc(=O)n(Cc2ccc(C(=O)OC)cc2)c(=O)n1Cc1ccc(OC)cc1", "result.unit": "%", "numeric.value": 73}
{"chemical.structure": "N=C(N)NCCNc1nc(=O)n(Cc2ccccc2)c(=O)n1Cc1ccc(OC(F)(F)F)cc1", "result.unit": "%", "numeric.value": 81}

====

# target.entity: HEK 293 GPR73 (prokineticin 1 receptor) expressing cells (Homo sapiens)
# Construct: expressed in transfected cells; host or cells: HEK 293
# protocol.text: PK1 functional assay: screening for PK1 antagonists on the FLIPR (calcium fluorescence)
# Assay type: cell-based
# test.context: HEK293, compound at 10 μM, HEK 293 GPR73 cells, multiple values = repeat tests, read-out: Ca^2+ Mobilization % Inh @10 μM
metric: inhibition at 10 µM (%)

{"compound": "COc1ccc(Cn2c(NCCNC(=N)Nc3ccccc3)nc(=O)n(Cc3ccc(Cl)c(Cl)c3)c2=O)cc1 [Cpd 71]", "result.unit": "%", "inhibition at 10 µM": 100}
{"compound": "COc1ccc(Cn2c(NCCNC(=N)Nc3ccc(OC(F)(F)F)cc3)nc(=O)n(Cc3ccc(F)cc3)c2=O)cc1 [Cpd 127]", "result.unit": "%", "inhibition at 10 µM": 100}
{"compound": "COc1ccc(Cn2c(NCCNC(=N)N3CCCCC3)nc(=O)n(Cc3ccc(F)cc3)c2=O)cc1 [Cpd 116]", "result.unit": "%", "inhibition at 10 µM": 99}
{"compound": "COc1ccc(Cn2c(NCC(C)(C)NC(=N)N)nc(=O)n(Cc3ccc(Cl)c(Cl)c3)c2=O)cc1 [Cpd 102]", "result.unit": "%", "inhibition at 10 µM": 68}
{"compound": "COc1ccc(Cn2c(NCCNC3=NCCN3)nc(=O)n(Cc3ccc(Cl)c(Cl)c3)c2=O)cc1 [Cpd 49]", "result.unit": "%", "inhibition at 10 µM": 75}
{"compound": "COc1ccc(Cn2c(NCCNC(=N)NC(C)(C)C)nc(=O)n(Cc3ccc(F)cc3)c2=O)cc1 [Cpd 121]", "result.unit": "%", "inhibition at 10 µM": 101}
{"compound": "CCOc1ccc(Cn2c(NCCNC(=N)N)nc(=O)n(Cc3ccc(Cl)c(Cl)c3)c2=O)cc1 [Cpd 29]", "result.unit": "%", "inhibition at 10 µM": 101}
{"compound": "COc1ccc(Cn2c(NCCNC(=N)N)nc(=O)n(C(C)c3ccc(OC)cc3)c2=O)cc1 (stereo not shown) [Cpd 79]", "result.unit": "%", "inhibition at 10 µM": 101}
{"compound": "CC(=O)Nc1ccc(Cn2c(NCCNC(=N)N)nc(=O)n(Cc3ccccc3)c2=O)cc1 [Cpd 23]", "result.unit": "%", "inhibition at 10 µM": 74}
{"compound": "COc1ccc(Cn2c(NCCNC(=N)N)nc(=O)n(Cc3ccc(OC(F)F)cc3)c2=O)cc1 [Cpd 80]", "result.unit": "%", "inhibition at 10 µM": 100}
{"compound": "CCCCCCCCCCNC(=N)NCCNc1nc(=O)n(Cc2ccc(F)cc2)c(=O)n1Cc1ccc(OC)cc1 [Cpd 108]", "result.unit": "%", "inhibition at 10 µM": 89}
{"compound": "C=CCC(c1ccc(Cl)cc1)n1c(=O)nc(NCCNC(=N)N)n(Cc2ccc(OC)cc2)c1=O (stereo not shown) [Cpd 83]", "result.unit": "%", "inhibition at 10 µM": 80}
{"compound": "COc1ccc(Cn2c(NCCNC(=N)Nc3ccc(Br)cc3)nc(=O)n(Cc3ccc(F)cc3)c2=O)cc1 [Cpd 103]", "result.unit": "%", "inhibition at 10 µM": 99}
{"compound": "C=CCNC(=N)NCCNc1nc(=O)n(Cc2ccc(Cl)c(Cl)c2)c(=O)n1Cc1ccc(OC)cc1 [Cpd 70]", "result.unit": "%", "inhibition at 10 µM": 101}
{"compound": "COc1ccc(Cn2c(NCCNC(=N)Nc3ccccc3SC)nc(=O)n(Cc3ccc(F)cc3)c2=O)cc1 [Cpd 133]", "result.unit": "%", "inhibition at 10 µM": 93}
{"compound": "COc1ccc(Cn2c(NCCCCNC(=N)N)nc(=O)n(Cc3ccc(Cl)c(Cl)c3)c2=O)cc1 [Cpd 32]", "result.unit": "%", "inhibition at 10 µM": 88}

Cited source for all entries: patent US20080045535A1
